Reference source for all entries: paper PMC10397247

experimental target: T1, 4H3041-bN
T1 chain: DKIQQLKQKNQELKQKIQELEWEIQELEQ
procedure text: two-hybrid library CCNG1;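 further: natural log of median RNA to DNA barcode read ratio; higher means stronger binding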
# if value of interaction score reaches -0.5, tag 1 (yes); if it stays below, tag 0 (no)

Request: Form field: interaction score at least -0.5? Entry: DKIQQLEQKNQELKQENQELEWKIQELKQ [4H2518-bN]
Response: 0 (no)

Request: Form field: interaction score at least -0.5? Entry: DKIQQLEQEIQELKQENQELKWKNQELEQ [4H2143-bN]
Response: 1 (yes)

Request: Form field: interaction score at least -0.5? Entry: DKIQQLKQKIQELKQKNQELEWENQELEQ [4H2931-bN]
Response: 0 (no)

Request: Form field: interaction score at least -0.5? Entry: DKIQQLEQKNQELEQEIQELKWENQELKQ [4H2444-bN]
Response: 1 (yes)

Request: Form field: interaction score at least -0.5? Entry: DKIQQLEQENQELKQEIQELKWKIQELEQ [4H2253-bN]
Response: 0 (no)

Request: Form field: interaction score at least -0.5? Entry: DKIQQLKQENQELKQEIQELEWKNQELKQ [4H2760-bN]
Response: 0 (no)

Request: Form field: interaction score at least -0.5? Entry: DKIQQLKQKNQELKQKIQELEWEIQELEQ [4H3041-bN]
Response: 1 (yes)
